Each entry below carries its reported inhibition.
# assay system: Tyrosine-protein kinase ITK/TSK (Homo sapiens) (UniProt Q08881);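 also: values are mean percent inhibition of ITK from the GSK PKIS screen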
# Sequence (Q08881 whole entry): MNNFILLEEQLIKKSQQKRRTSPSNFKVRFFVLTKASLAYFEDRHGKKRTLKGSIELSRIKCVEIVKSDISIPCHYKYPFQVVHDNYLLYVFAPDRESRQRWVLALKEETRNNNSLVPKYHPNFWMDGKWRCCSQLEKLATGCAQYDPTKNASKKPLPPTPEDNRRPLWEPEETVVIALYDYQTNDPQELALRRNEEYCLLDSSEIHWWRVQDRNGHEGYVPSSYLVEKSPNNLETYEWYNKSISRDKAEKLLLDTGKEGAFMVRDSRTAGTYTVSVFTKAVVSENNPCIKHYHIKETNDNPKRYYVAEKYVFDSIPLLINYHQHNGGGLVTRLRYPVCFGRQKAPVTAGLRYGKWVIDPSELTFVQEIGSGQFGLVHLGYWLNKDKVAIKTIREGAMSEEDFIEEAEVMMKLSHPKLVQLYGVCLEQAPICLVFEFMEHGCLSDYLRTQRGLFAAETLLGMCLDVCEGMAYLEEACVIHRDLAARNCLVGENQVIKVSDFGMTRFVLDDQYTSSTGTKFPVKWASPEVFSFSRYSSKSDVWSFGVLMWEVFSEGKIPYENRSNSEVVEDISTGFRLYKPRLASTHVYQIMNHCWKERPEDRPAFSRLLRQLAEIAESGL
# condition context: at 1 µM
result type: inhibition (%)

| smiles str | u | data value |
| --- | --- | --- |
| COC(=O)Nc1nc2ccc(S(=O)(=O)c3ccc(NC(=O)Nc4cc(C(F)(F)F)ccc4F)cc3)cc2[nH]1 | % | 2.62 |
| Fc1cccc(COc2ccc(Nc3ncnc4sc(-c5ccco5)cc34)cc2Cl)c1 | % | 3.14 |
| [O-][S+]1CCN(Cc2ccc(-c3ccc4ncnc(Nc5ccc(OCc6cccc(F)c6)c(Cl)c5)c4c3)o2)CC1 | % | 2.41 |
| CS(=O)(=O)CCNCc1coc(-c2ccc3ncnc(Nc4ccc(OCc5ccccc5)cc4)c3c2)c1 | % | 1.57 |
| COc1ccc(-c2cc3c(N)ncnc3o2)cc1 | % | 0.68 |

---

# assay system: Proto-oncogene tyrosine-protein kinase ROS (Homo sapiens) (UniProt P08922);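 also: value given is the mean percent inhibition of ROS kinase activity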
# Sequence (P08922 whole entry): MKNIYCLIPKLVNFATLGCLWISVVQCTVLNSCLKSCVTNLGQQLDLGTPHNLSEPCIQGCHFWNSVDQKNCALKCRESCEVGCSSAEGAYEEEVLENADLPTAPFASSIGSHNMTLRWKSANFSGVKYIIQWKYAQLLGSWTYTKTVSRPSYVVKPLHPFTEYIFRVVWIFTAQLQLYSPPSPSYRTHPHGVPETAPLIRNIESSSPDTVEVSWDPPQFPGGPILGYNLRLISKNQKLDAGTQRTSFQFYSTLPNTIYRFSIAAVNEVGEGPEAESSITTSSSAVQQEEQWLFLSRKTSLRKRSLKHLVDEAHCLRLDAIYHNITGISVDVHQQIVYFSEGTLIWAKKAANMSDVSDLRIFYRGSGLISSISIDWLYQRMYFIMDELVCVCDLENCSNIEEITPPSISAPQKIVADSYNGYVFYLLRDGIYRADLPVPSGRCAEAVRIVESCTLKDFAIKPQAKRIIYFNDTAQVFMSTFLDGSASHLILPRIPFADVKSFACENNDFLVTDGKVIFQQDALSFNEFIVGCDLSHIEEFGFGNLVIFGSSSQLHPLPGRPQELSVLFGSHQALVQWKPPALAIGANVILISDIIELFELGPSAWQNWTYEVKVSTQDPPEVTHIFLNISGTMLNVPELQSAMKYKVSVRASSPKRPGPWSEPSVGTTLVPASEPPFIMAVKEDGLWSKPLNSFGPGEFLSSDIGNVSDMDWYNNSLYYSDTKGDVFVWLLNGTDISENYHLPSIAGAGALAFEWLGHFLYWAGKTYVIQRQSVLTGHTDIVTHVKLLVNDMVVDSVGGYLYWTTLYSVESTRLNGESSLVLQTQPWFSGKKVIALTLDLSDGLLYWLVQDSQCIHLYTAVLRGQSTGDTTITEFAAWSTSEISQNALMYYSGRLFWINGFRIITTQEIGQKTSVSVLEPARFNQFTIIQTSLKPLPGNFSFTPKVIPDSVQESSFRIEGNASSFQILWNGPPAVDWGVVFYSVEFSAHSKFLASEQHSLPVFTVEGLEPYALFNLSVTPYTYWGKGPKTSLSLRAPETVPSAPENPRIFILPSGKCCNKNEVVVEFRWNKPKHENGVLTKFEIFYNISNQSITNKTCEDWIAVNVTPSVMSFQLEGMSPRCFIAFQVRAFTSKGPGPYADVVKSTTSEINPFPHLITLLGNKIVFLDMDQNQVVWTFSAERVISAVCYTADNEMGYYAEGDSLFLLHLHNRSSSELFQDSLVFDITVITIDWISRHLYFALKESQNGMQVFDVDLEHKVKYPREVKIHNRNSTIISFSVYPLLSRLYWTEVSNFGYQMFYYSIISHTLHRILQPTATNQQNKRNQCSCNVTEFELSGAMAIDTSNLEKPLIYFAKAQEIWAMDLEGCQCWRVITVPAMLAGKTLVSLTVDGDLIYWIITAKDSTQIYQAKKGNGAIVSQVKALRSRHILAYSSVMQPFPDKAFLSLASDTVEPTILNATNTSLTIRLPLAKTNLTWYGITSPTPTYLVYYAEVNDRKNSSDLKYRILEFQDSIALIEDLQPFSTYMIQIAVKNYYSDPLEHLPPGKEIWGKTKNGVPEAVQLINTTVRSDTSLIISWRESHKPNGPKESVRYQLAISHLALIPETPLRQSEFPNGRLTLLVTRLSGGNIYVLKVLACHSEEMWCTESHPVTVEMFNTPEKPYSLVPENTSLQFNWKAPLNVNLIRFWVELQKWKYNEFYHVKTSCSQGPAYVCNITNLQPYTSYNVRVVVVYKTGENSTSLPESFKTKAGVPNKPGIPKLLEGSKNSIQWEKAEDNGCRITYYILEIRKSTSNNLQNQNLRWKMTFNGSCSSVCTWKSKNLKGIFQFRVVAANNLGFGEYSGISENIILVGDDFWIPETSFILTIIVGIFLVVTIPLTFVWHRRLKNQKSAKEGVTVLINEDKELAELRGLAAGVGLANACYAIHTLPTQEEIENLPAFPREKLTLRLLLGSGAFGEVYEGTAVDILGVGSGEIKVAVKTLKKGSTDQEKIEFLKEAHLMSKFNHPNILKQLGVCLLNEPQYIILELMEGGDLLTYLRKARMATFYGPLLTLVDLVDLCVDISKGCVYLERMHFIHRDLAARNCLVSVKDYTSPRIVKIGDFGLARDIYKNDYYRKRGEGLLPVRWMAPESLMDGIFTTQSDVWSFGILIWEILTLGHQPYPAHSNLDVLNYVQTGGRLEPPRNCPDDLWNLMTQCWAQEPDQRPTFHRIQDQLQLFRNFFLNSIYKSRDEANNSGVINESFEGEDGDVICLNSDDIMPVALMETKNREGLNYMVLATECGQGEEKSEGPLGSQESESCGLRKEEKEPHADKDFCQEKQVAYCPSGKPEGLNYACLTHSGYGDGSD
# condition context: at 1 µM
Class field: derived from inhibition; ranges class 0 = under 4%, class 1 = from 4% up to 7%, class 2 = 7% and over

| compound | category label |
| --- | --- |
| CC1=C(C(=O)Nc2cc(Cl)c3[nH]ncc3c2)C(c2ccc(C(F)(F)F)cc2)CC(=O)N1 (centres undefined) | class 1 |
| O=C(O[C@H]1CN[C@H](C#Cc2cc3ncnc(Nc4ccc(Cc5ccccc5)cc4)c3s2)C1)N1CCOCC1 | class 0 |
| CCCN(CCS(C)(=O)=O)Cc1ccc(-c2ccc3ncnc(Nc4ccc(OCc5cccc(F)c5)c(Cl)c4)c3c2)o1 | class 1 |
| O=S(=O)(CCNCc1ccc(-c2ccc3ncnc(Nc4ccc(OCc5cccc(F)c5)c(Cl)c4)c3c2)o1)c1ccccc1 | class 1 |
| Cc1ccc2c(-c3ccnc(Nc4ccccc4)n3)c(-c3ccc(F)cc3)nn2n1 | class 1 |
| c1ccc(COc2ccc(Nc3ncnc4ccc(-c5ccco5)cc34)cc2)cc1 | class 0 |
| COc1cccc(-c2c[nH]c3c(N/N=C/c4ccncc4)ncnc23)c1 | class 2 |
| COc1ccc2c(-c3ccnc(Nc4cccc(OC(F)(F)F)c4)n3)cnn2n1 | class 2 |
| CCN(CC)S(=O)(=O)c1ccc(OC)c(Nc2ncc(-c3ccccc3)o2)c1 | class 2 |
| CS(=O)(=O)CCNCc1coc(-c2ccc3ncnc(Nc4ccc(OCc5ccccc5)cc4)c3c2)c1 | class 1 |
| CS(=O)(=O)CCNCc1ccc(-c2ccc3ncnc(Nc4ccc(OCc5ccccc5)c(C(F)(F)F)c4)c3c2)o1 | class 1 |
| COc1ccc(-c2oc3ncnc(N)c3c2-c2ccc(NC(=O)Nc3cc(C(F)(F)F)ccc3F)cc2)cc1 | class 2 |
| CCn1c(-c2nonc2N)nc2cnc(Oc3cccc(NC(=O)c4ccc(N(C)C)cc4)c3)cc21 | class 0 |
| Fc1ccc(-c2nn3ccccc3c2-c2ccncc2)cc1 | class 0 |
| COc1ccc(CNC(=O)c2ccc(-c3cc(-c4nnc(C)o4)ccc3C)cc2)cc1 | class 1 |
| NS(=O)(=O)c1ccc(N/N=C2\C(=O)Nc3ccc4ncccc4c32)cc1 | class 2 |
| CCn1cc(-c2ccnc3[nH]ccc23)c(-c2cccc(NC(=O)Nc3ccc(OCc4ccccc4)cc3)c2)n1 | class 0 |

---

# assay system: Tyrosine-protein kinase CSK (Homo sapiens);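 also: value given is the averaged percent inhibition of CSK kinase activity, from the GSK PKIS kinase inhibitor set screening panel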
# condition context: at 0.1 µM

| smiles str | inhibition |
| --- | --- |
| COc1ccc2[nH]c3c4[nH]c5ccc(OC)cc5c4c4c(c3c2c1)C(=O)NC4=O | 4.3% |
| O=S(=O)(CCNCc1ccc(-c2ccc3ncnc(Nc4ccc(OCc5cccc(F)c5)c(Cl)c4)c3c2)o1)c1ccccc1 | 7.31% |
| CCc1nn2ncccc2c1-c1ccnc(NC2CC2)n1 | 0.85% |
| Cc1cccc(Nc2ncc(-c3ccccc3)o2)c1 | 1.12% |
| CCNC(=O)O[C@H]1CN[C@H](C#Cc2cc3ncnc(Nc4ccc(OCc5cccc(F)c5)c(Cl)c4)c3s2)C1 | 5.58% |
| COC(=O)c1sc(-n2cnc3cc(OC)c(OC)cc32)cc1OCc1ccccc1C(F)(F)F | 1.76% |
| COc1ccc(-c2cc(-c3c[nH]nc3-c3ccccn3)ccn2)cc1 | 7.77% |
| CCn1c(-c2nonc2N)nc2cnc(Oc3cccc(NC(=O)c4ccc(N(C)C)cc4)c3)cc21 | 2.19% |
| COc1ccc(CNC(=O)c2ccc(-c3cc(-c4nnc(C)o4)ccc3C)cc2)cc1 | 3.65% |

---

# assay system: Calcium/calmodulin-dependent protein kinase type 1D (Homo sapiens) (UniProt Q8IU85);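 also: reported figure is the mean percent inhibition of CAMK1D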
# Sequence (Q8IU85 whole entry, looked up): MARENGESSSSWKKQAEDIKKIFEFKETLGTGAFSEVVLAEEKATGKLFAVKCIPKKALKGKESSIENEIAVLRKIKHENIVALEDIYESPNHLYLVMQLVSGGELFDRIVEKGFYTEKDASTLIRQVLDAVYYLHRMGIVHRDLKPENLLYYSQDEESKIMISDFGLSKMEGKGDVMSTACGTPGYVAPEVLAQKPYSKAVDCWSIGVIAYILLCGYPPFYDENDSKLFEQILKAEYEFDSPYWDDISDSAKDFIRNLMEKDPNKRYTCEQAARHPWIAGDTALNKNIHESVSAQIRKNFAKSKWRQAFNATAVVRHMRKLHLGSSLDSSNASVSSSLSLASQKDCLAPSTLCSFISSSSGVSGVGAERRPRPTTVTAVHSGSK
# condition context: at 1 µM
Attribute: inhibition
result type: inhibition (%)

| smiles str | result type | data value |
| --- | --- | --- |
| Fc1cccc(COc2ccc(Nc3ncnc4sc(-c5ccco5)cc34)cc2Cl)c1 | inhibition | -1.08 |
| CC(=O)NCc1cccc(C#Cc2cncnc2Nc2ccc(OCc3cccc(F)c3)c(Cl)c2)c1 | inhibition | 2.08 |
| Nc1ncc(-c2cccc(S(N)(=O)=O)c2)c2scc(-c3ccc(F)c(Cl)c3)c12 | inhibition | 0.88 |
| Fc1ccc(-c2nn3ccccc3c2-c2ccncc2)cc1 | inhibition | 1.9 |
| Fc1ccc(-c2cc(-c3c[nH]nc3-c3ccccn3)ccn2)cc1 | inhibition | -1.28 |
| N#Cc1c(NC(=O)c2ccc(F)cc2)sc2c1CCCC2 | inhibition | 0.45 |
| Cc1cccc(Nc2ncc(-c3ccccc3)o2)c1 | inhibition | 3.78 |
| [O-][S+]1CCN(Cc2ccc(-c3ccc4ncnc(Nc5ccc(OCc6cccc(F)c6)c(Cl)c5)c4c3)o2)CC1 | inhibition | 1.18 |
| COC(=O)c1sc(-n2cnc3cc(OC)c(OC)cc32)cc1OCc1ccccc1C(F)(F)F | inhibition | 2.52 |
| CNC(=O)c1cncc(/C=C/c2ccccc2Cl)c1 | inhibition | -1.08 |
| Fc1ccc(-c2nn3ncccc3c2-c2ccnc(Nc3ccc4c(c3)OCCO4)n2)cc1 | inhibition | 8.91 |
| CCn1c(-c2nonc2N)nc2cnc(Oc3cccc(NC(=O)c4ccc(N(C)C)cc4)c3)cc21 | inhibition | 2.17 |
| CCc1nn2ncccc2c1-c1ccnc(NC2CC2)n1 | inhibition | 2.41 |
| CCn1cc(-c2ccnc3[nH]ccc23)c(-c2cccc(NC(=O)Nc3ccc(OCc4ccccc4)cc3)c2)n1 | inhibition | 4.92 |
| CCOc1ccc2c(-c3ccnc(Nc4cccc(C(F)(F)F)c4)n3)cnn2n1 | inhibition | 1.1 |
| COc1ccc(-c2oc3ncnc(N)c3c2-c2ccc(NC(=O)Nc3cc(C(F)(F)F)ccc3F)cc2)cc1 | inhibition | 11.9 |
| Nc1nc(-c2cccc(Cl)c2)c(-c2ccc3ncccc3n2)s1 | inhibition | 0.6 |
| CC(C)COC(=O)c1ccc2c(c1)/C(=C/Nc1ccc(S(N)(=O)=O)cc1)C(=O)N2 | inhibition | 7.89 |
| CCCN(CCS(C)(=O)=O)Cc1ccc(-c2ccc3ncnc(Nc4ccc(OCc5cccc(F)c5)c(Cl)c4)c3c2)o1 | inhibition | 1.73 |
| COc1cc(Nc2nccc(Nc3ccc4c(C)n[nH]c4c3)n2)cc(OC)c1OC | inhibition | 6.21 |

---

# assay system: Fibroblast growth factor receptor 2 (Homo sapiens) (UniProt P21802);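 also: values are mean percent inhibition of FGFR2 kinase, measured within the GSK Published Kinase Inhibitor Set (PKIS) screening panel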
# Sequence (P21802 22-821 limits assumed): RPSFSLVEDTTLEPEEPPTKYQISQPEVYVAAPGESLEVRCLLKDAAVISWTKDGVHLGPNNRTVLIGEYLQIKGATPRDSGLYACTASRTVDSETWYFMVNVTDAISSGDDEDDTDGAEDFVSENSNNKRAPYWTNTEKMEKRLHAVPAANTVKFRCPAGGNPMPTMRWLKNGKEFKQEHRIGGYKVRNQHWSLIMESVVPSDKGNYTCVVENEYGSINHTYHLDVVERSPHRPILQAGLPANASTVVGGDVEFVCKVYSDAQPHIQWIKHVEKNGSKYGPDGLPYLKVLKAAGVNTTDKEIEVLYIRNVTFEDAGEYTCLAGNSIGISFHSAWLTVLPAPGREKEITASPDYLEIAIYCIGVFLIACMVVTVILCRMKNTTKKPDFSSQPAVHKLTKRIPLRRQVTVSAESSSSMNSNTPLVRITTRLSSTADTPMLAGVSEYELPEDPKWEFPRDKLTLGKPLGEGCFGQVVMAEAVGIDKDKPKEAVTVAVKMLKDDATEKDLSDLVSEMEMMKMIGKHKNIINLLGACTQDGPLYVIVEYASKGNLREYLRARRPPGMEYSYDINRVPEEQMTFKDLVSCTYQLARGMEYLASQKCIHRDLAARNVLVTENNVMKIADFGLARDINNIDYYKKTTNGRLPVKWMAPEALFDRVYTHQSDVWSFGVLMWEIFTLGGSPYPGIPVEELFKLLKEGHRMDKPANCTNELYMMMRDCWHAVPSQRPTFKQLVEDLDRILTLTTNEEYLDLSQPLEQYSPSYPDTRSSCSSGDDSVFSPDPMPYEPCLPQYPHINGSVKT
# condition context: at 0.1 µM

| smiles str | assay system | inhibition / % |
| --- | --- | --- |
| N#Cc1c(NC(=O)CN2CCOCC2)sc2c1CCCC2 | Fibroblast growth factor receptor 2 (Homo sapiens) (UniProt P21802) | 3.03 |
| COc1ccc(-c2nn3ncccc3c2-c2ccnc(Nc3ccc4c(c3)OCCO4)n2)cc1 | Fibroblast growth factor receptor 2 (Homo sapiens) (UniProt P21802) | 3.13 |
| COc1ccc2[nH]c3c4[nH]c5ccc(OC)cc5c4c4c(c3c2c1)C(=O)NC4=O | Fibroblast growth factor receptor 2 (Homo sapiens) (UniProt P21802) | 4.75 |
| Nc1nc(-c2ccc(F)cc2)c(-c2ccc3ncccc3n2)s1 | Fibroblast growth factor receptor 2 (Homo sapiens) (UniProt P21802) | 4.62 |
| COc1ccc(-c2cc3c(N)ncnc3o2)cc1 | Fibroblast growth factor receptor 2 (Homo sapiens) (UniProt P21802) | -1.74 |
| CCNC(=O)O[C@H]1CN[C@H](C#Cc2cc3ncnc(Nc4ccc(OCc5cccc(F)c5)c(Cl)c4)c3s2)C1 | Fibroblast growth factor receptor 2 (Homo sapiens) (UniProt P21802) | 2.71 |
| CCn1c(-c2nonc2N)nc2cnc(Oc3cccc(NC(=O)c4ccc(N(C)C)cc4)c3)cc21 | Fibroblast growth factor receptor 2 (Homo sapiens) (UniProt P21802) | -0.14 |
| N#Cc1c(NC(=O)c2ccc(F)cc2)sc2c1CCCC2 | Fibroblast growth factor receptor 2 (Homo sapiens) (UniProt P21802) | 1.6 |
| COc1ccc(CNC(=O)c2ccc(-c3cc(-c4nnc(C)o4)ccc3C)cc2)cc1 | Fibroblast growth factor receptor 2 (Homo sapiens) (UniProt P21802) | 3.51 |
| O=S(=O)(CCNCc1ccc(-c2ccc3ncnc(Nc4ccc(OCc5cccc(F)c5)c(Cl)c4)c3c2)o1)c1ccccc1 | Fibroblast growth factor receptor 2 (Homo sapiens) (UniProt P21802) | 7.23 |
| Fc1ccc(-c2nn3ccccc3c2-c2ccncc2)cc1 | Fibroblast growth factor receptor 2 (Homo sapiens) (UniProt P21802) | -0.01 |
| NS(=O)(=O)c1ccc(Nc2ncc(-c3ccccc3)o2)cc1 | Fibroblast growth factor receptor 2 (Homo sapiens) (UniProt P21802) | 7.74 |
| COc1cc2ncn(-c3cc(OCc4ccccc4C(F)(F)F)c(C(=O)N(C)C)s3)c2cc1OC | Fibroblast growth factor receptor 2 (Homo sapiens) (UniProt P21802) | 2.76 |
| Fc1cccc(COc2ccc(Nc3ncnc4sc(-c5ccco5)cc34)cc2Cl)c1 | Fibroblast growth factor receptor 2 (Homo sapiens) (UniProt P21802) | 4.08 |
| Clc1ccc(-c2nn3ncccc3c2-c2ccnc(Nc3ccccc3)n2)cc1 | Fibroblast growth factor receptor 2 (Homo sapiens) (UniProt P21802) | 0.58 |
| Nc1nc(-c2cccc(Cl)c2)c(-c2ccc3ncccc3n2)s1 | Fibroblast growth factor receptor 2 (Homo sapiens) (UniProt P21802) | 5.51 |
| CC(=O)Nc1cccc(C#Cc2cncnc2Nc2ccc(OCc3cccc(F)c3)c(Cl)c2)c1 | Fibroblast growth factor receptor 2 (Homo sapiens) (UniProt P21802) | 2.27 |
| CCN(CC)S(=O)(=O)c1ccc(OC)c(Nc2ncc(-c3ccccc3)o2)c1 | Fibroblast growth factor receptor 2 (Homo sapiens) (UniProt P21802) | 15 |
| CCCN1CCC(c2ccc(Nc3nc(Nc4cc(F)ccc4C(N)=O)c4cc[nH]c4n3)c(OC)c2)CC1 | Fibroblast growth factor receptor 2 (Homo sapiens) (UniProt P21802) | 3.25 |
| Cc1cccc2c1NC(=O)/C2=N\Nc1ccc(S(N)(=O)=O)cc1 | Fibroblast growth factor receptor 2 (Homo sapiens) (UniProt P21802) | 7.75 |
| CS(=O)(=O)CCNCc1ccc(-c2ccc3ncnc(Nc4ccc(OCc5ccccc5)c(C(F)(F)F)c4)c3c2)o1 | Fibroblast growth factor receptor 2 (Homo sapiens) (UniProt P21802) | 3.74 |
| COc1ccc(-c2oc3ncnc(N)c3c2-c2ccc(NC(=O)Nc3cc(C(F)(F)F)ccc3F)cc2)cc1 | Fibroblast growth factor receptor 2 (Homo sapiens) (UniProt P21802) | 31.2 |
| COC(=O)c1sc(-n2cnc3cc(OC)c(OC)cc32)cc1OCc1ccccc1C(F)(F)F | Fibroblast growth factor receptor 2 (Homo sapiens) (UniProt P21802) | 3.5 |
| Cc1ccc(O)cc1Nc1ccnc2cc(-c3ccccn3)ccc12 | Fibroblast growth factor receptor 2 (Homo sapiens) (UniProt P21802) | 12.8 |
| CC(C)(CO)CNC(=O)c1ccc2c(c1)/C(=N/Nc1ccc(S(N)(=O)=O)cc1)C(=O)N2 | Fibroblast growth factor receptor 2 (Homo sapiens) (UniProt P21802) | 0.16 |
| c1cc(-c2cnn3nc(N4CCOCC4)ccc23)nc(NC2CC2)n1 | Fibroblast growth factor receptor 2 (Homo sapiens) (UniProt P21802) | 4.74 |
| CNC(=O)c1cc(-c2ccc(F)cc2)cc(-c2ccc(S(=O)(=O)N3CCCC3)cc2)c1N | Fibroblast growth factor receptor 2 (Homo sapiens) (UniProt P21802) | 9.77 |
| CCn1c(-c2nonc2N)nc2ccccc21 | Fibroblast growth factor receptor 2 (Homo sapiens) (UniProt P21802) | 0.75 |
| CN(C)CCOc1ccc(-c2nc(-c3ccncc3)c(-c3ccc4c(c3)CC/C4=N\O)[nH]2)cc1 | Fibroblast growth factor receptor 2 (Homo sapiens) (UniProt P21802) | 4.67 |
| CCOc1ccc2c(-c3ccnc(Nc4cccc(C(F)(F)F)c4)n3)cnn2n1 | Fibroblast growth factor receptor 2 (Homo sapiens) (UniProt P21802) | 3.04 |
| CCn1c(-c2nonc2N)nc2c(C#CC(C)(C)O)nc(OC[C@H](N)c3ccccc3)cc21 | Fibroblast growth factor receptor 2 (Homo sapiens) (UniProt P21802) | 4.95 |
| Fc1ccc(-c2cc(-c3c[nH]nc3-c3ccccn3)ccn2)cc1 | Fibroblast growth factor receptor 2 (Homo sapiens) (UniProt P21802) | 5.36 |
| CN1CCC(n2cnc(-c3ccc(F)cc3)c2-c2ccnc(N)n2)CC1 | Fibroblast growth factor receptor 2 (Homo sapiens) (UniProt P21802) | 1.68 |
| CCn1c(-c2nonc2N)nc2c(C#CC(C)(C)O)ncc(OC3CCNCC3)c21 | Fibroblast growth factor receptor 2 (Homo sapiens) (UniProt P21802) | 9.23 |
| CC(C)COC(=O)c1ccc2c(c1)/C(=C/Nc1ccc(S(N)(=O)=O)cc1)C(=O)N2 | Fibroblast growth factor receptor 2 (Homo sapiens) (UniProt P21802) | -0.6 |
| [O-][S+]1CCN(Cc2ccc(-c3ccc4ncnc(Nc5ccc(OCc6cccc(F)c6)c(Cl)c5)c4c3)o2)CC1 | Fibroblast growth factor receptor 2 (Homo sapiens) (UniProt P21802) | 7.74 |
| CNC(=O)c1cccc(C#Cc2cncnc2Nc2ccc(OCc3cccc(F)c3)c(Cl)c2)c1 | Fibroblast growth factor receptor 2 (Homo sapiens) (UniProt P21802) | 0.94 |
| O=C(Nc1n[nH]c2cc(-c3ccc(F)cc3)ccc12)C1CC1 | Fibroblast growth factor receptor 2 (Homo sapiens) (UniProt P21802) | 1.37 |
| FC(F)(F)c1cccc(-c2nn3ncccc3c2-c2ccnc(Nc3ccc4c(c3)OCCO4)n2)c1 | Fibroblast growth factor receptor 2 (Homo sapiens) (UniProt P21802) | 1.92 |
| c1ccc(-c2nc3n(c2-c2ccc4c(c2)OCO4)CCC3)nc1 | Fibroblast growth factor receptor 2 (Homo sapiens) (UniProt P21802) | -0.68 |
| Fc1ccc(-c2nn3ncccc3c2-c2ccnc(Nc3ccc4c(c3)OCCO4)n2)cc1 | Fibroblast growth factor receptor 2 (Homo sapiens) (UniProt P21802) | 5.02 |
| CCc1nn2ncccc2c1-c1ccnc(NC2CC2)n1 | Fibroblast growth factor receptor 2 (Homo sapiens) (UniProt P21802) | 8.21 |
